Data origin: patent EP0036153A1

Kindly state MIC for each of the entries shown.
System: Candida albicans (Robin) Berkhout No 20/M
Assay: Pseudomycelium and mycelium phase test with Candida albicans (minimal inhibitory concentration, 100 % inhibition)
Type: cell-based
Conditions: Candida albicans, 48 h, microaerophilic, 2 days, 37°C, read-out: MHKMyzelph.

Example molecules with recorded MIC:
response.value for OC(Cn1cncn1)(c1ccccc1)c1ccc(Cl)cc1Cl (stereo not shown) (field: MIC) = < 0.125 µg/mL

response.value for OC(Cn1cncn1)(c1ccc(Cl)cc1)c1ccc(Cl)cc1 (field: MIC) = < 0.125 µg/mL

response.value for OC(Cn1cncn1)(c1ccc(Cl)cc1)c1ccccc1Cl (stereo not shown) (field: MIC) = 1 µg/mL

response.value for OC(Cn1cncn1)(c1ccc(Cl)cc1)c1ccc(Cl)cc1Cl (stereo not shown) (field: MIC) = < 0.125 µg/mL

response.value for OC(Cn1cncn1)(c1ccccc1)c1ccc(Cl)cc1 (stereo not shown) (field: MIC) = < 0.125 µg/mL

response.value for OC(Cn1cncn1)(c1ccccc1Cl)c1ccc(Cl)cc1Cl (stereo not shown) (field: MIC) = 1 µg/mL

More entries:
response.value for OC(Cn1cncn1)(c1ccccc1)c1ccccc1Cl (stereo not shown) (field: MIC) = < 0.125 µg/mL
